Where these numbers come from: the supplement of paper PMC10307832

Test system: HARA
Test: relative viability (nuclei count vs DMSO), 5 days (fraction); higher = more cells survive
Conditions: first compound 0.2 µM
Quick rule for you: relative viability under 0.1 gets Met, anything else gets Not met.

# molecule, class.label
records = [
    ("CCNC(=O)c1noc(-c2cc(C(C)C)c(O)cc2O)c1-c1ccc(CN2CCOCC2)cc1 [Luminespib] + Nc1ncn([C@H]2C[C@H](O)[C@@H](CO)O2)c(=O)n1 [Decitabine] (partner 2 µM)", "Not met"),
    ("CCNC(=O)c1noc(-c2cc(C(C)C)c(O)cc2O)c1-c1ccc(CN2CCOCC2)cc1 [Luminespib] + CS(=O)(=O)N1CCN(Cc2cc3nc(-c4cccc5[nH]ncc45)nc(N4CCOCC4)c3s2)CC1 [Pictilisib] (partner 1 µM)", "Met"),
    ("CCNC(=O)c1noc(-c2cc(C(C)C)c(O)cc2O)c1-c1ccc(CN2CCOCC2)cc1 [Luminespib] + CC(C)C[C@H](NC(=O)[C@H](Cc1ccccc1)NC(=O)c1cnccn1)B(O)O [Bortezomib] (partner 0.002 µM)", "Met"),
    ("CN1CCN(CCOc2cc(OC3CCOCC3)c3c(Nc4c(Cl)ccc5c4OCO5)ncnc3c2)CC1 [Saracatinib] + Nc1nc2[nH]cc(CCc3ccc(C(=O)N[C@@H](CCC(=O)O)C(=O)O)cc3)c2c(=O)[nH]1 [Pemetrexed] (partner 0.2 µM)", "Not met"),
    ("CCNC(=O)c1noc(-c2cc(C(C)C)c(O)cc2O)c1-c1ccc(CN2CCOCC2)cc1 [Luminespib] + N=C(N)NC(=N)NCCc1ccccc1 [Phenformin] (partner 250 µM)", "Met"),
    ("CCNC(=O)c1noc(-c2cc(C(C)C)c(O)cc2O)c1-c1ccc(CN2CCOCC2)cc1 [Luminespib] + CC(=O)c1c(C)c2cnc(Nc3ccc(N4CCNCC4)cn3)nc2n(C2CCCC2)c1=O [Palbociclib] (partner 0.5 µM)", "Not met"),
    ("CCNC(=O)c1noc(-c2cc(C(C)C)c(O)cc2O)c1-c1ccc(CN2CCOCC2)cc1 [Luminespib] + C[C@]1(O)C[C@@H](c2nc(-c3ccc4ccc(-c5ccccc5)nc4c3)c3c(N)nccn32)C1 [Linsitinib] (partner 1 µM)", "Met"),
    ("CN1CCN(CCOc2cc(OC3CCOCC3)c3c(Nc4c(Cl)ccc5c4OCO5)ncnc3c2)CC1 [Saracatinib] + CC(=O)c1c(C)c2cnc(Nc3ccc(N4CCNCC4)cn3)nc2n(C2CCCC2)c1=O [Palbociclib] (partner 0.5 µM)", "Not met"),
    ("Cc1csc(=NC2CCCCC2)n1/N=C/c1ccc(O)c(O)c1O [MIM1] + CCNC(=O)c1noc(-c2cc(C(C)C)c(O)cc2O)c1-c1ccc(CN2CCOCC2)cc1 [Luminespib] (partner 0.01 µM)", "Not met"),
    ("CCNC(=O)c1noc(-c2cc(C(C)C)c(O)cc2O)c1-c1ccc(CN2CCOCC2)cc1 [Luminespib] + C[C@@H](Oc1cc(-c2cnn(C3CCNCC3)c2)cnc1N)c1c(Cl)ccc(F)c1Cl [Crizotinib] (partner 1 µM)", "Met"),
    ("Cc1csc(=NC2CCCCC2)n1/N=C/c1ccc(O)c(O)c1O [MIM1] + CS(=O)(=O)N1CCN(Cc2cc3nc(-c4cccc5[nH]ncc45)nc(N4CCOCC4)c3s2)CC1 [Pictilisib] (partner 1 µM)", "Not met"),
    ("Cc1csc(=NC2CCCCC2)n1/N=C/c1ccc(O)c(O)c1O [MIM1] + COc1cc2c(Oc3ccc(NC(=O)C4(C(=O)Nc5ccc(F)cc5)CC4)cc3F)ccnc2cc1OCCCN1CCOCC1 [Foretinib] (partner 0.25 µM)", "Not met"),
    ("CCNC(=O)c1noc(-c2cc(C(C)C)c(O)cc2O)c1-c1ccc(CN2CCOCC2)cc1 [Luminespib] + CS(=O)(=O)CCNCc1ccc(-c2ccc3ncnc(Nc4ccc(OCc5cccc(F)c5)c(Cl)c4)c3c2)o1 [Lapatinib] (partner 2 µM)", "Not met"),
    ("CCNC(=O)c1noc(-c2cc(C(C)C)c(O)cc2O)c1-c1ccc(CN2CCOCC2)cc1 [Luminespib] + Cc1cc(Nc2cc(N3CCN(C)CC3)nc(Sc3ccc(NC(=O)C4CC4)cc3)n2)n[nH]1 [Tozasertib] (partner 0.1 µM)", "Not met"),
    ("Cc1csc(=NC2CCCCC2)n1/N=C/c1ccc(O)c(O)c1O [MIM1] + Nc1ncn([C@H]2C[C@H](O)[C@@H](CO)O2)c(=O)n1 [Decitabine] (partner 2 µM)", "Not met"),
    ("CCNC(=O)c1noc(-c2cc(C(C)C)c(O)cc2O)c1-c1ccc(CN2CCOCC2)cc1 [Luminespib] + Cc1nc(Nc2ncc(C(=O)Nc3c(C)cccc3Cl)s2)cc(N2CCN(CCO)CC2)n1 [Dasatinib] (partner 0.075 µM)", "Met"),
]

###

System: NCI-H2170
Assay: relative viability (nuclei count vs DMSO), 5 days (fraction); higher = more cells survive
Conditions: first compound 2.53 µM
Quick rule for you: relative viability under 0.8 gets True, anything else gets False.

# compound, class.label
data = [
    ("Nc1cccc2c1CN(C1CCC(=O)NC1=O)C2=O (stereo not given) [Lenalidomide] + Cc1nc(NC(=O)N2CCC[C@H]2C(N)=O)sc1-c1ccnc(C(C)(C)C(F)(F)F)c1 [Alpelisib] (partner 2 µM)", "False"),
    ("Nc1cccc2c1CN(C1CCC(=O)NC1=O)C2=O (stereo not given) [Lenalidomide] + Cc1nc(Nc2ncc(C(=O)Nc3c(C)cccc3Cl)s2)cc(N2CCN(CCO)CC2)n1 [Dasatinib] (partner 0.075 µM)", "True"),
    ("Nc1cccc2c1CN(C1CCC(=O)NC1=O)C2=O (stereo not given) [Lenalidomide] + Cc1cc(Nc2cc(N3CCN(C)CC3)nc(Sc3ccc(NC(=O)C4CC4)cc3)n2)n[nH]1 [Tozasertib] (partner 0.1 µM)", "True"),
    ("Nc1cccc2c1CN(C1CCC(=O)NC1=O)C2=O (stereo not given) [Lenalidomide] + COc1cc2c(Oc3ccc(NC(=O)C4(C(=O)Nc5ccc(F)cc5)CC4)cc3F)ccnc2cc1OCCCN1CCOCC1 [Foretinib] (partner 0.25 µM)", "False"),
    ("Nc1cccc2c1CN(C1CCC(=O)NC1=O)C2=O (stereo not given) [Lenalidomide] + N=C(N)NC(=N)NCCc1ccccc1 [Phenformin] (partner 250 µM)", "True"),
]

###

System: NCI-H647
Assay: relative viability (nuclei count vs DMSO), 5 days (fraction); higher = more cells survive
Conditions: first compound 0.6325 µM
The following compounds are shown together with reported relative viability values.

# compound, relative viability
data = [
    ("Cc1csc(=NC2CCCCC2)n1/N=C/c1ccc(O)c(O)c1O [MIM1] + NC(=O)Nc1cc(-c2cccc(F)c2)sc1C(=O)N[C@H]1CCCNC1 [AZD7762] (partner 0.2 µM)", 0.379),
    ("Cc1csc(=NC2CCCCC2)n1/N=C/c1ccc(O)c(O)c1O [MIM1] + O=C(c1cc(Cc2n[nH]c(=O)c3ccccc23)ccc1F)N1CCN(C(=O)C2CC2)CC1 [Olaparib] (partner 8 µM)", 0.53),
    ("Cc1csc(=NC2CCCCC2)n1/N=C/c1ccc(O)c(O)c1O [MIM1] + C[C@]1(O)C[C@@H](c2nc(-c3ccc4ccc(-c5ccccc5)nc4c3)c3c(N)nccn32)C1 [Linsitinib] (partner 1 µM)", 1.07),
]

###

The following molecules are shown together with reported relative viability values.
Tested on: HCC-44
Test: relative viability (nuclei count vs DMSO), 5 days (fraction); higher = more cells survive
Conditions: first compound 0.001 µM
property: relative viability

# molecule, system.name, value.reported
rows = [
    ("Cc1cn(-c2cc(NC(=O)c3ccc(C)c(Nc4nccc(-c5cccnc5)n4)c3)cc(C(F)(F)F)c2)cn1 [Nilotinib] + N=C(N)NC(=N)NCCc1ccccc1 [Phenformin] (partner 250 µM)", "HCC-44", 0.154),
    ("Cc1cn(-c2cc(NC(=O)c3ccc(C)c(Nc4nccc(-c5cccnc5)n4)c3)cc(C(F)(F)F)c2)cn1 [Nilotinib] + Nc1nc2[nH]cc(CCc3ccc(C(=O)N[C@@H](CCC(=O)O)C(=O)O)cc3)c2c(=O)[nH]1 [Pemetrexed] (partner 0.2 µM)", "HCC-44", 0.662),
    ("Cc1cn(-c2cc(NC(=O)c3ccc(C)c(Nc4nccc(-c5cccnc5)n4)c3)cc(C(F)(F)F)c2)cn1 [Nilotinib] + COc1cccc2cc(-c3nc([C@H]4CC[C@H](C(=O)O)CC4)n4ncnc(N)c34)[nH]c12 [OSI-027] (partner 0.5 µM)", "HCC-44", 0.498),
]

###

Tested on: NCI-H661
Test: relative viability (nuclei count vs DMSO), 5 days (fraction); higher = more cells survive
Settings: first compound 0.006325 µM
The following molecules are shown together with reported relative viability values.

# molecule, relative viability
rows = [
    ("CCNC(=O)c1noc(-c2cc(C(C)C)c(O)cc2O)c1-c1ccc(CN2CCOCC2)cc1 [Luminespib] + O=C(c1cc(Cc2n[nH]c(=O)c3ccccc23)ccc1F)N1CCN(C(=O)C2CC2)CC1 [Olaparib] (partner 8 µM)", 0.804),
    ("CCNC(=O)c1noc(-c2cc(C(C)C)c(O)cc2O)c1-c1ccc(CN2CCOCC2)cc1 [Luminespib] + CS(=O)(=O)N1CCN(Cc2cc3nc(-c4cccc5[nH]ncc45)nc(N4CCOCC4)c3s2)CC1 [Pictilisib] (partner 1 µM)", 0.344),
    ("CCNC(=O)c1noc(-c2cc(C(C)C)c(O)cc2O)c1-c1ccc(CN2CCOCC2)cc1 [Luminespib] + COc1cccc2cc(-c3nc([C@H]4CC[C@H](C(=O)O)CC4)n4ncnc(N)c34)[nH]c12 [OSI-027] (partner 0.5 µM)", 0.672),
    ("CCNC(=O)c1noc(-c2cc(C(C)C)c(O)cc2O)c1-c1ccc(CN2CCOCC2)cc1 [Luminespib] + COc1cc2c(Oc3ccc(NC(=O)C4(C(=O)Nc5ccc(F)cc5)CC4)cc3F)ccnc2cc1OCCCN1CCOCC1 [Foretinib] (partner 0.25 µM)", 0.992),
]
